This listing pairs substances with measured relative_activity_day5.
Tested on: K562 CRISPRi cells
Test: Perturb-seq pooled growth measurement (sgRNA counts, growth phenotype γ, relative activity)
Assay type: cell-based, human
Details: γ relative to perfectly matched sgRNA (_00) of the same gene, day 5

| substance | relative_activity_day5 |
| --- | --- |
| EIF2S1_ −_67827080.23-P1P2_06 (guide GAGCGAAGCGCGCGCTGAGG; listed as DNA, chemistry not fully specified) | 0.7393 |
| GNB2L1_ + _180670873.23-P1P2_08 (guide GTGCAAGGTGGCGGCAGGAG; listed as DNA, chemistry not fully specified) | 1.052 |
| RPS18_ + _33239917.23-P1P2_01 (guide GCTGCAATGCCGCTGGATCA; listed as DNA, chemistry not fully specified) | 0.6853 |
| TUBB_ + _30688126.23-P1_03 (guide GCGGCAGCAAGGTTCTGAGA; listed as DNA, chemistry not fully specified) | 0.7721 |
| CAD_ + _27440280.23-P1P2_13 (guide GGCTGGAGAGAAGCCTGGCG; listed as DNA, chemistry not fully specified) | 0.2413 |
| DUT_ + _48624411.23-P1P2_01 (guide GCCAGCGAGGAGACCACCGG; listed as DNA, chemistry not fully specified) | 0.9993 |

Reference source: patent US20220259593A1
